# METHOD: Displacement of [3H]strychnine from strychnine-sensitive glycine receptor in rat spinal cord
Entries and their log10(IC50)
Quick note: numbers are log10 of IC50, with µM as the unit.

Measured log10(IC50) of COc1c(NC2O[C@H](CO)[C@@H](O)[C@H](O)[C@H]2O)cc2c(c1OC)-c1ccc(SC)c(=O)cc1[C@@H](NC(C)=O)CC2 (some centres not stated) : 1.03

For COc1c(NC2OC[C@@H](O)[C@@H](O)[C@@H]2O)cc2c(c1OC)-c1ccc(SC)c(=O)cc1[C@@H](NC(C)=O)CC2 (some centres not stated) the molecule record lists log10(IC50) as 0.93

The reported log10(IC50) of the molecule COc1c(N[C@@H]2O[C@@H](C)[C@@H](O)[C@@H](O)[C@@H]2O)cc2c(c1OC)-c1ccc(SC)c(=O)cc1[C@@H](NC(C)=O)CC2 was 0.62

The recorded log10(IC50) for COc1c(N)cc2c(c1OC)-c1ccc(SC)c(=O)cc1[C@@H](NC(C)=O)CC2 is 1.60

molecule COc1c(NC2OC[C@@H](O)[C@H](O)[C@@H]2O)cc2c(c1OC)-c1ccc(SC)c(=O)cc1[C@@H](NC(C)=O)CC2 (some centres not stated) , log10(IC50) observed: 0.61

// COc1c(NC2OC[C@@H](O)[C@H](O)[C@H]2O)cc2c(c1OC)-c1ccc(SC)c(=O)cc1[C@@H](NC(C)=O)CC2 (some centres not stated) : log10(IC50) value = 0.52

log10(IC50) recorded for this molecule, COc1c(O[C@@H]2O[C@H](CO)[C@@H](O)[C@H](O)[C@H]2O)cc2c(c1OC)-c1ccc(SC)c(=O)cc1[C@@H](NC(C)=O)CC2 [THIOCOLCHICOSIDE] , is 0.18

----------
Measured IC50 accompanies every entry in the list below.
# SYSTEM_UNDER_TEST: GABA-A receptor; anion channel
# METHOD: Displacement of [3H]muscimol from GABA-A receptor in Sprague-Dawley rat spinal cord
# Format: protein-complex assay
Could you give me the number in µM? Just the number is fine.

// worked examples, IC50 included
> print(dat)
                                   compound               system.under.test  numeric.result
1  COc1c(NC2OC[C@@H](O)[C@@H](O)[C@@H]2O)cc2c(c1OC)-c1ccc(SC)c(=O)cc1[C@@H](NC(C)=O)CC2 (stereo partly drawn)  GABA-A receptor; anion channel            10.5
2  COc1c(N[C@@H]2O[C@H](CO)[C@@H](O)[C@H](O)[C@@H]2O)cc2c(c1OC)-c1ccc(SC)c(=O)cc1[C@@H](NC(C)=O)CC2  GABA-A receptor; anion channel            11.3

Then this compound:
The compound COc1c(N)cc2c(c1OC)-c1ccc(SC)c(=O)cc1[C@@H](NC(C)=O)CC2 showed IC50 equal to 1.9

----------
# METHOD: Displacement of [3H]strychnine from strychnine-sensitive glycine receptor in rat spinal cord
MEASURE_NAME: IC50 (µM)
Write down the numeric answer in µM and omit the unit.

Reference set, count: 3
> print(dat)
                                test.smiles  numeric.result
1  COc1c(N[C@H]2O[C@@H](C)[C@H](O)[C@@H](O)[C@H]2O)cc2c(c1OC)-c1ccc(SC)c(=O)cc1[C@@H](NC(C)=O)CC2             4.6
2  O=C1C[C@@H]2OCC=C3CN4CC[C@]56c7ccccc7N1[C@H]5[C@H]2[C@H]3C[C@H]46           0.014
3  COc1c(N[C@@H]2O[C@H](CO)[C@@H](O)[C@H](O)[C@@H]2O)cc2c(c1OC)-c1ccc(SC)c(=O)cc1[C@@H](NC(C)=O)CC2            13.1

Measured IC50 of NCC(=O)O : 15.8
